Molecular target: human recombinant serotonin (5-Hydroxytryptamine) 5-HT2C receptor (Homo sapiens, UniProt P28335)
Construct: expressed in transfected cells; host or cells: CHO-K1 cells
Sequence (P28335 33-458): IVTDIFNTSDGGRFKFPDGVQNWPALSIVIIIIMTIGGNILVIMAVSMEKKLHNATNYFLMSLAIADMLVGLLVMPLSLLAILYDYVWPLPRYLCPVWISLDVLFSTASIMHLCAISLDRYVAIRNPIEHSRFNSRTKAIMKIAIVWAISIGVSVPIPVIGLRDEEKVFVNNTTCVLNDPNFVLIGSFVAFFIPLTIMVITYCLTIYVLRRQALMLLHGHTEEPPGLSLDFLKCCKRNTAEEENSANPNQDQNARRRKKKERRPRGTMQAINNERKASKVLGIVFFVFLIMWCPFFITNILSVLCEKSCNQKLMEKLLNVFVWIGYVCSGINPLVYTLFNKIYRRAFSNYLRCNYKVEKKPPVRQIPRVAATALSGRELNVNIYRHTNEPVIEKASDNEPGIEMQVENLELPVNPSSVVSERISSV
Experiment: Serotonin 5-HT2C radioligand binding ([3H]Mesulergine)
Details: read-out: Serotonin 5-HT2C, inhibition of ligand binding (1 μM)
Tick yes (1) if inhibition at 1 µM is 80% or greater. Tick no (0) if inhibition at 1 µM is less than 80%.

                                    compound  label_class
 0  C/C(=C\n1c2c(c3cc(C)ccc31)C1CCC(C2)N1C)c1cccnc1 (stereo not shown)       no (0)
 1  Cc1ccc2c(c1)c1c(n2CCCc2ccc(Cl)cc2)CC2CCC1N2C (stereo not shown)      yes (1)
 2  COc1ccc(C#Cn2c3c(c4cc(C)ccc42)C2CCC(C3)N2C)cc1F (stereo not shown)      yes (1)
 3  COc1ccc(/C(C)=C/n2c3c(c4cc(Cl)ccc42)C2CCC(C3)N2C)cc1F (stereo not shown)      yes (1)
 4  Cc1ccc(CCn2c3c(c4cc(Cl)ccc42)C2CCC(C3)N2C)cn1 (stereo not shown)       no (0)
 5  C/C(=C\n1c2c(c3cc(C)ccc31)C1CCC(C2)N1C)c1ccccc1F (stereo not shown)      yes (1)
 6  COc1ccc(CCn2c3c(c4cc(Cl)ccc42)C2CCC(C3)N2C)cc1 (stereo not shown)      yes (1)
 7  C/C(=C\n1c2c(c3cc(C)ccc31)C1CCC(C2)N1C)c1ccc(Cl)cc1 (stereo not shown)      yes (1)
 8  Cc1cncc(CCn2c3c(c4cc(Cl)ccc42)C2CCC(C3)N2C)c1 (stereo not shown)       no (0)
 9  COc1ccc(C#Cn2c3c(c4cc(Cl)ccc42)C2CCC(C3)N2C)cc1F (stereo not shown)      yes (1)
10  CN1C2CCC1c1c(n(CCC(=O)N3CCCC3)c3ccc(Cl)cc13)C2 (stereo not shown)       no (0)
11  CN1C2CCC1c1c(n(CCC(N)=O)c3ccc(Cl)cc13)C2 (stereo not shown)       no (0)
12  CN1C2CCC1c1c(n(CCc3cncc(Cl)c3)c3ccc(Cl)cc13)C2 (stereo not shown)       no (0)
13  C/C(=C\n1c2c(c3cc(Cl)ccc31)C1CCC(C2)N1C)c1ccc(Cl)cc1 (stereo not shown)      yes (1)
14  Cc1ccc2c(c1)c1c(n2CCc2cnc(C)nc2)CC2CCC1N2C (stereo not shown)       no (0)
15  CN1[C@@H]2CC[C@H]1c1c(n(CCc3ccc(C(F)(F)F)nc3)c3ccccc13)C2      yes (1)

Value source: patent US8546381B2
